Provenance of the data: patent US20180185510A1

What IC50 [M] CTG, Caki-2 cells (B7H3-positive) was measured for each of the following?
Target: T1, B7H3 on B7H3-positive human tumour cells (A498, MCF-7, Caki-2, 786-0) (human, UniProt Q5ZPR3 29-534)
T1 sequence (looked up): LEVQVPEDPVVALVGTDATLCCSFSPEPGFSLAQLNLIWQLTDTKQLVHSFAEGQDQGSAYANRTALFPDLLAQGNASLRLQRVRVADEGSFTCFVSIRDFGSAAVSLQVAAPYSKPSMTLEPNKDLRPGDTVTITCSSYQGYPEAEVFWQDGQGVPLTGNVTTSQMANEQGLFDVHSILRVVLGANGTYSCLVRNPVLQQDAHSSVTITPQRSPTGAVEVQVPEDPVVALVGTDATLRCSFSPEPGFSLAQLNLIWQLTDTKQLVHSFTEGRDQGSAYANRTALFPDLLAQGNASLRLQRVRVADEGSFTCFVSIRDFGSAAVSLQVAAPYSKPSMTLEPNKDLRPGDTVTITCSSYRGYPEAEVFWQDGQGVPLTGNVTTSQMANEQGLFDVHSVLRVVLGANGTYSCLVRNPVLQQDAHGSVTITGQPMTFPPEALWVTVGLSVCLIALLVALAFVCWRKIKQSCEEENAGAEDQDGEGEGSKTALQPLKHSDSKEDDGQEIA
Test: cell-based or functional assay

Reported IC50 [M] CTG, Caki-2 cells (B7H3-positive) of Example 194L2: anti-B7H3 AK1B (TPP-5706) coupled with Intermediate F194 (antibody, human IgG1, kappa, V domains shown, KSP inhibitor-linker (Intermediate F194) on lysine residues, sites not given; drug/mAb ratio 2.9) VH: QVQLQQPGAELVKPGASVKMSCKASGYTFTIYNVHWIKQTPGQGLEWMGTIFPGNGDTSYNQKFKDKATLTTDKSSKTAYMQLNSLTSEDSAVYYCARWDDGNVGFAHWGQGTLVTVSA VL: DIQMTQSPASLSASVGETVTITCRASENINNYLTWFQQKQGKSPQLLVYHAKTLAEGVPSRFSGSGSGTQFSLKINSLQPEDFGSYYCQHHYGTPPTFGGGTKLEIKR : 2.75e-10 M

Reported IC50 [M] CTG, Caki-2 cells (B7H3-positive) of Example 275L2: anti-B7H3 AK1B (TPP-5706) coupled with Intermediate F275 (antibody, human IgG1, kappa, V domains shown, KSP inhibitor-linker (Intermediate F275) on cysteine residues of the partially reduced antibody, sites not given; drug/mAb ratio 3.8) VH: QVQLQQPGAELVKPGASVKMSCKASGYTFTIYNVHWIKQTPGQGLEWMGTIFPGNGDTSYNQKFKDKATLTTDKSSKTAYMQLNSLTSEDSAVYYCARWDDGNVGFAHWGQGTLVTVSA VL: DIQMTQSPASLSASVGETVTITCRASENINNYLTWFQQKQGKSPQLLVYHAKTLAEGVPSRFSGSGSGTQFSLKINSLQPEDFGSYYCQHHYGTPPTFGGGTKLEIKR : > 3e-07 M

Reported IC50 [M] CTG, Caki-2 cells (B7H3-positive) of Example 297L2 (Isomer 1): anti-B7H3 AK1B (TPP-5706) coupled with Intermediate F297 (antibody, human IgG1, kappa, V domains shown, KSP inhibitor-linker (Intermediate F297) on cysteine residues of the partially reduced antibody, sites not given; drug/mAb ratio 3.1) VH: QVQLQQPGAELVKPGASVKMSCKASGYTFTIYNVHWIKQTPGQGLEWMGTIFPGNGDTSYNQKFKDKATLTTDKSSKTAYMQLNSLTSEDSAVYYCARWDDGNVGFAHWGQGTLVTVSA VL: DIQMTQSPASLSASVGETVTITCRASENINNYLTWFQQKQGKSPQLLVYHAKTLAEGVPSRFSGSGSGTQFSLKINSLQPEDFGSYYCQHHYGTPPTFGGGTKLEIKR : > 3e-07 M
